Measured Kd values are reported for all entries that follow.
SYSTEM TESTED: PfSpdS (Plasmodium falciparum, UniProt Q8II73)
Sequence (Q8II73 entry or part of it): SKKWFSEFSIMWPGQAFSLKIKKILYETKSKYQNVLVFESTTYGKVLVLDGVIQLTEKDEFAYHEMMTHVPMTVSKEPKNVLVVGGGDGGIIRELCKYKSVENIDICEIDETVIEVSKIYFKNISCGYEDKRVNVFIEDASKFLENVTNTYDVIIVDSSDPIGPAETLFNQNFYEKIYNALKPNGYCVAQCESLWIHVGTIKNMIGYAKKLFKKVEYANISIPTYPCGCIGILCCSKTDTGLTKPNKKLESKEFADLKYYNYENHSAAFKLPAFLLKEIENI
EXPERIMENTAL DETAILS: biochemical
Assay type: binding
CONDITION DETAILS: free PfSpdS; 100 mM HEPES pH 7.5, 250 mM NaCl, 25°C; read-out: KD

Consider the following illustrative entries.
[[record]]
compound = "NCc1ccc(N)cc1"
result_value = "> 300 µM"

[[record]]
compound = "NCCCCCc1nc2ccccc2[nH]1"
result_value = "15.2 µM"


Please examine the following record next.
The measured Kd associated with NCCCCCC(CCN)SCC1OC(n2cnc3c(N)ncnc32)C(O)C1O (stereo not drawn) reads 2.8 µM

###

SYSTEM TESTED: PfSpdS (Plasmodium falciparum, UniProt Q8II73)
EXPERIMENTAL DETAILS: biochemical
Format: binding
CONDITION DETAILS: KD, PfSpdS saturated with dcAdoMet (ligand 1); values for ligand 2
ASSAY ENDPOINT: Kd (µM)
Note: unit µM is implicit; provide only the numeric part.

The compound Cc1ccc(N)cc1 [4MAN, 4-methylaniline] , tested on PfSpdS (Plasmodium falciparum, UniProt Q8II73), showed Kd of 7.7

###

SYSTEM TESTED: PfSpdS (Plasmodium falciparum)
EXPERIMENTAL DETAILS: biochemical
CONDITION DETAILS: PfSpdS assays; L. Persson, unpublished results; read-out: IC50
ASSAY ENDPOINT: IC50

The measured IC50 associated with NCCCCCc1nc2ccccc2[nH]1 reads > 100 µM

###

SYSTEM TESTED: PfSpdS (Plasmodium falciparum, UniProt Q8II73)
EXPERIMENTAL DETAILS: biochemical
Format: binding
CONDITION DETAILS: free PfSpdS; listed as with footnote mark a; read-out: KD
ASSAY ENDPOINT: pKd
Notebook: values listed as pKd are -log10 of the concentration (mol/L).

The measured pKd associated with NCCCN[C@H]1CC[C@H](N)CC1 reads 5.08

###

SYSTEM TESTED: PfSpdS (Plasmodium falciparum, UniProt Q8II73)
EXPERIMENTAL DETAILS: biochemical
CONDITION DETAILS: read-out: predicted IC50 from Eq (2)
ASSAY ENDPOINT: pIC50
Notebook: values listed as pIC50 are -log10 of the concentration (mol/L).

The molecule NCCCCCC(CCN)SCC1OC(n2cnc3c(N)ncnc32)C(O)C1O (stereo not shown) , tested on PfSpdS (Plasmodium falciparum, UniProt Q8II73), showed pIC50 of 5.00

###

SYSTEM TESTED: PfSpdS (Plasmodium falciparum, UniProt Q8II73)
EXPERIMENTAL DETAILS: biochemical
Type: binding
CONDITION DETAILS: PfSpdS saturated with MTA (ligand 1); values for ligand 2
ASSAY ENDPOINT: ΔS (cal/mol/deg)
Note: unit cal/mol/deg is implicit; provide only the numeric part.

[[record]]
chemical_structure = "NCc1ccc(N)cc1"
result_value = 7.84


The measured ΔS associated with NCCCN[C@H]1CC[C@H](N)CC1 reads 28.4

The measured ΔS associated with NCCCCNCCCN reads 6.74

The measured ΔS associated with NCCCCN reads -22.4

###

SYSTEM TESTED: PfSpdS (Plasmodium falciparum, UniProt Q8II73)
EXPERIMENTAL DETAILS: biochemical
CONDITION DETAILS: read-out: Ki competitive
ASSAY ENDPOINT: pKi
Notebook: values listed as pKi are -log10 of the concentration (mol/L).

The measured pKi associated with NCCCCCC(CCN)SCC1OC(n2cnc3c(N)ncnc32)C(O)C1O (stereo not shown) reads 5.47

###

SYSTEM TESTED: UniProt:Q8II73
EXPERIMENTAL DETAILS: biochemical
ASSAY ENDPOINT: IC50 (µM)
Note: unit µM is implicit; provide only the numeric part.

The measured IC50 associated with Cc1ccc(N)cc1 [4MAN, 4-methylaniline] reads 23

###

SYSTEM TESTED: PfSpdS (Plasmodium falciparum, UniProt Q8II73)
EXPERIMENTAL DETAILS: biochemical
Assay type: binding
CONDITION DETAILS: PfSpdS saturated with MTA (ligand 1); values for ligand 2; read-out: KD
ASSAY ENDPOINT: Kd
Show the value, then the unit it is measured in.

The measured Kd associated with NCc1ccc(N)cc1 [4AMA, 4-aminomethylaniline] reads 45.3 µM

###

SYSTEM TESTED: PfSpdS (Plasmodium falciparum)
EXPERIMENTAL DETAILS: biochemical
Format: binding
CONDITION DETAILS: KD, free PfSpdS; 100 mM HEPES pH 7.5, 250 mM NaCl, 25°C
Experimental: Protein samples of 1 mg/ml were dialyzed overnight at 4°C against buffer containing 100 mM HEPES, pH 7.5, 250 mM NaCl. Protein concentration was determined by UV absorption (A280 = 1 for 1.3 mg/mL) immediately before loading into the calorimeter cell. […] The protein at a concentration of 0.8–30 μM was loaded into the sample cell of a VP-ITC microcalorimeter (MicroCal, Inc.). […]
pKd: −log10 of the molar value.
Measured pKd values are reported for all entries that follow.

Consider the following illustrative entries.
[[record]]
molecule = "Cc1ccc(N)cc1 [4MAN, 4-methylaniline]"
result_value = "< 3.52"

[[record]]
molecule = "NCCCCNCCCN [Spermidine, spermidine]"
result_value = "< 3.52"

[[record]]
molecule = "C[S+](CCCN)CC1OC(n2cnc3c(N)ncnc32)C(O)C1O (stereo not shown) [dcAdoMet, decarboxylated S-adenosylmethionine]"
result_value = 5.43


Please examine the following record next.
The measured pKd associated with NCCCCN [Putrescine, putrescine] reads < 3.52

###

SYSTEM TESTED: PfSpdS (Plasmodium falciparum, UniProt Q8II73)
EXPERIMENTAL DETAILS: biochemical
Format: binding
CONDITION DETAILS: KD, PfSpdS saturated with MTA (ligand 1); values for ligand 2
ASSAY ENDPOINT: Kd (µM)
Note: unit µM is implicit; provide only the numeric part.

[[record]]
chemical_structure = "NCCCCNCCCN"
result_value = 1.2


Please examine the following record next.
The measured Kd associated with NCCCCN reads 59.5
